- System: Escherichia coli TOP10
- experiment-description: shrunken log2 fold change of peptide-encoding DNA abundance (4.5 h post-induction vs induction); higher = less antimicrobial activity (less host growth inhibition)
- condition-details: time post-induction: 4.5 h; library: site-saturation at positions 5, 18, 19, 20
outcome-measure: shrunken log2 fold change

construct_sequence=RRIRCRPPRLPRPRPRPLSSPRP assay_result=-0.173
construct_sequence=RRIRTRPPRLPRPRPRPSIAPRP assay_result=-0.281
construct_sequence=RRIRDRPPRLPRPRPRPYWHPRP assay_result=-0.921
construct_sequence=RRIRGRPPRLPRPRPRPRTEPRP assay_result=0.755
construct_sequence=RRIRRRPPRLPRPRPRPNWYPRP assay_result=-0.197
construct_sequence=RRIRCRPPRLPRPRPRPSFQPRP assay_result=-0.384
construct_sequence=RRIRLRPPRLPRPRPRPIDMPRP assay_result=-0.184
construct_sequence=RRIRRRPPRLPRPRPRPKCYPRP assay_result=0.00463
construct_sequence=RRIRERPPRLPRPRPRPFKAPRP assay_result=2.45
construct_sequence=RRIRGRPPRLPRPRPRPIYPPRP assay_result=0.119

----------
- System: Escherichia coli TOP10
- experiment-description: shrunken log2 fold change of peptide-encoding DNA abundance (4.5 h post-induction vs induction); higher = less antimicrobial activity (less host growth inhibition)
- condition-details: time post-induction: 4.5 h; library: site-saturation at positions 5, 18, 19, 20
If the reported shrunken log2 fold change equals or exceeds 0.03, assign YES. If not, assign NO.

construct_sequence=RRIRSRPPRLPRPRPRPIVCPRP class=YES
construct_sequence=RRIRTRPPRLPRPRPRPMAGPRP class=NO
construct_sequence=RRIRIRPPRLPRPRPRPHQLPRP class=NO
construct_sequence=RRIRMRPPRLPRPRPRPMQAPRP class=YES
construct_sequence=RRIRKRPPRLPRPRPRPDEEPRP class=YES
construct_sequence=RRIRTRPPRLPRPRPRPPPRPRP class=YES
construct_sequence=RRIRFRPPRLPRPRPRPMFRPRP class=YES
construct_sequence=RRIRCRPPRLPRPRPRPENKPRP class=NO
construct_sequence=RRIRTRPPRLPRPRPRPETNPRP class=YES
construct_sequence=RRIRRRPPRLPRPRPRPLKHPRP class=YES
construct_sequence=RRIRLRPPRLPRPRPRPWMPPRP class=NO
construct_sequence=RRIRDRPPRLPRPRPRPNLRPRP class=NO
construct_sequence=RRIRHRPPRLPRPRPRPECNPRP class=NO
construct_sequence=RRIRFRPPRLPRPRPRPWQNPRP class=NO
construct_sequence=RRIRRRPPRLPRPRPRPDDHPRP class=NO
construct_sequence=RRIRTRPPRLPRPRPRPWHQPRP class=NO
construct_sequence=RRIRHRPPRLPRPRPRPAADPRP class=YES
construct_sequence=RRIRCRPPRLPRPRPRPYLNPRP class=NO
construct_sequence=RRIRPRPPRLPRPRPRPMHCPRP class=NO

----------
- System: Escherichia coli TOP10
- experiment-description: shrunken log2 fold change of peptide-encoding DNA abundance (4.5 h post-induction vs induction); higher = less antimicrobial activity (less host growth inhibition)
- condition-details: time post-induction: 4.5 h; library: site-saturation at positions 5, 18, 19, 20
param class (str): category from shrunken log2 fold change; see ranges lower band: < -0.02; central band: ≥ -0.02 and < 0.04; upper band: ≥ 0.04

construct_sequence=RRIRWRPPRLPRPRPRPIVGPRP class="central band"
construct_sequence=RRIRERPPRLPRPRPRPSFRPRP class="lower band"
construct_sequence=RRIRKRPPRLPRPRPRPRHRPRP class="upper band"
construct_sequence=RRIRYRPPRLPRPRPRPFSIPRP class="central band"
construct_sequence=RRIRARPPRLPRPRPRPLKMPRP class="upper band"
construct_sequence=RRIRCRPPRLPRPRPRPVGSPRP class="upper band"
construct_sequence=RRIRVRPPRLPRPRPRPASPPRP class="upper band"
construct_sequence=RRIRYRPPRLPRPRPRPHRRPRP class="lower band"
construct_sequence=RRIRSRPPRLPRPRPRPLWIPRP class="lower band"
construct_sequence=RRIRVRPPRLPRPRPRPSGSPRP class="central band"
construct_sequence=RRIRLRPPRLPRPRPRPVPDPRP class="central band"
construct_sequence=RRIRSRPPRLPRPRPRPTGGPRP class="upper band"
construct_sequence=RRIRWRPPRLPRPRPRPAHVPRP class="central band"

----------
- Tested on: Escherichia coli TOP10;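 also: peptides expressed intracellularly from a pBAD plasmid library in pooled LB shake-flask culture, induced with 0.3% L-arabinose, DNA abundance read by NGS, three biological replicates, DESeq2 with apeglm shrinkage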
- experiment-description: shrunken log2 fold change of peptide-encoding DNA abundance (4.5 h post-induction vs induction); higher = less antimicrobial activity (less host growth inhibition)
- condition-details: time post-induction: 4.5 h; library: site-saturation at positions 5, 18, 19, 20
The entries below are paired with their reported shrunken log2 fold change.
outcome-measure: shrunken log2 fold change

construct_sequence=RRIRFRPPRLPRPRPRPMECPRP assay_result=-0.0638
construct_sequence=RRIRVRPPRLPRPRPRPEQRPRP assay_result=0.0562
construct_sequence=RRIRMRPPRLPRPRPRPRAPPRP assay_result=1.18
construct_sequence=RRIRTRPPRLPRPRPRPTRSPRP assay_result=-0.111
construct_sequence=RRIRVRPPRLPRPRPRPPDYPRP assay_result=-0.114
construct_sequence=RRIRCRPPRLPRPRPRPHKVPRP assay_result=-0.446
construct_sequence=RRIRLRPPRLPRPRPRPRGYPRP assay_result=0.262
construct_sequence=RRIRIRPPRLPRPRPRPSCEPRP assay_result=-0.17
construct_sequence=RRIRTRPPRLPRPRPRPKTWPRP assay_result=-0.268
construct_sequence=RRIRWRPPRLPRPRPRPRGPPRP assay_result=0.931
construct_sequence=RRIRPRPPRLPRPRPRPWVKPRP assay_result=-0.0754
construct_sequence=RRIRWRPPRLPRPRPRPDHAPRP assay_result=0.391
construct_sequence=RRIRIRPPRLPRPRPRPTMAPRP assay_result=-0.445
construct_sequence=RRIRNRPPRLPRPRPRPRKMPRP assay_result=0.263
construct_sequence=RRIRKRPPRLPRPRPRPVAIPRP assay_result=0.265
construct_sequence=RRIRKRPPRLPRPRPRPVCNPRP assay_result=-0.148
construct_sequence=RRIRKRPPRLPRPRPRPYWAPRP assay_result=-0.448
construct_sequence=RRIRRRPPRLPRPRPRPLELPRP assay_result=0.199
construct_sequence=RRIRARPPRLPRPRPRPPFWPRP assay_result=0.914
construct_sequence=RRIRDRPPRLPRPRPRPNDSPRP assay_result=-0.134
construct_sequence=RRIRKRPPRLPRPRPRPTIRPRP assay_result=-0.241
construct_sequence=RRIRIRPPRLPRPRPRPQRPPRP assay_result=-0.465
construct_sequence=RRIRTRPPRLPRPRPRPRTPPRP assay_result=0.138
construct_sequence=RRIRYRPPRLPRPRPRPKINPRP assay_result=-0.902
construct_sequence=RRIRRRPPRLPRPRPRPVKKPRP assay_result=0.0447
construct_sequence=RRIRKRPPRLPRPRPRPLKVPRP assay_result=0.237
construct_sequence=RRIRYRPPRLPRPRPRPHDVPRP assay_result=-0.379
construct_sequence=RRIRVRPPRLPRPRPRPRGRPRP assay_result=0.197
construct_sequence=RRIRHRPPRLPRPRPRPQHWPRP assay_result=-0.00395
construct_sequence=RRIRSRPPRLPRPRPRPQLPPRP assay_result=0.53
construct_sequence=RRIRCRPPRLPRPRPRPSCWPRP assay_result=0.2
construct_sequence=RRIRFRPPRLPRPRPRPYDGPRP assay_result=-0.18
construct_sequence=RRIRFRPPRLPRPRPRPIKFPRP assay_result=-0.587
construct_sequence=RRIRDRPPRLPRPRPRPLFSPRP assay_result=0.0525
construct_sequence=RRIRVRPPRLPRPRPRPDMNPRP assay_result=-0.548
construct_sequence=RRIRRRPPRLPRPRPRPVYDPRP assay_result=-0.331
construct_sequence=RRIRERPPRLPRPRPRPGVTPRP assay_result=0.00546
construct_sequence=RRIRMRPPRLPRPRPRPIDMPRP assay_result=-0.0621
construct_sequence=RRIRWRPPRLPRPRPRPNERPRP assay_result=0.119
construct_sequence=RRIRCRPPRLPRPRPRPQIYPRP assay_result=-0.579
construct_sequence=RRIRIRPPRLPRPRPRPEAPPRP assay_result=0.366
construct_sequence=RRIRYRPPRLPRPRPRPVLPPRP assay_result=-0.511
construct_sequence=RRIRHRPPRLPRPRPRPELGPRP assay_result=-0.101
construct_sequence=RRIRSRPPRLPRPRPRPNCRPRP assay_result=-0.0318
construct_sequence=RRIRHRPPRLPRPRPRPNIEPRP assay_result=-0.172
construct_sequence=RRIRQRPPRLPRPRPRPGSWPRP assay_result=0.298
construct_sequence=RRIRQRPPRLPRPRPRPIWNPRP assay_result=-0.183
construct_sequence=RRIRDRPPRLPRPRPRPQNQPRP assay_result=-0.0268
construct_sequence=RRIRDRPPRLPRPRPRPNIYPRP assay_result=-0.3
construct_sequence=RRIRTRPPRLPRPRPRPQFFPRP assay_result=-0.11
construct_sequence=RRIRARPPRLPRPRPRPSCQPRP assay_result=0.133
construct_sequence=RRIRNRPPRLPRPRPRPCHAPRP assay_result=-0.37
construct_sequence=RRIRGRPPRLPRPRPRPVLHPRP assay_result=-0.0969
construct_sequence=RRIRCRPPRLPRPRPRPDEMPRP assay_result=-0.0197
construct_sequence=RRIRNRPPRLPRPRPRPKQRPRP assay_result=0.432
construct_sequence=RRIRMRPPRLPRPRPRPWRHPRP assay_result=0.0256

Value source: the supplement of paper PMC9112550
